Literature-derived IC50 for E3 ubiquitin-protein ligase UHRF1 (Homo sapiens, UniProt Q96T88) follows.
# Target entity: E3 ubiquitin-protein ligase UHRF1 (Homo sapiens, UniProt Q96T88)
# Sequence (Q96T88 whole entry): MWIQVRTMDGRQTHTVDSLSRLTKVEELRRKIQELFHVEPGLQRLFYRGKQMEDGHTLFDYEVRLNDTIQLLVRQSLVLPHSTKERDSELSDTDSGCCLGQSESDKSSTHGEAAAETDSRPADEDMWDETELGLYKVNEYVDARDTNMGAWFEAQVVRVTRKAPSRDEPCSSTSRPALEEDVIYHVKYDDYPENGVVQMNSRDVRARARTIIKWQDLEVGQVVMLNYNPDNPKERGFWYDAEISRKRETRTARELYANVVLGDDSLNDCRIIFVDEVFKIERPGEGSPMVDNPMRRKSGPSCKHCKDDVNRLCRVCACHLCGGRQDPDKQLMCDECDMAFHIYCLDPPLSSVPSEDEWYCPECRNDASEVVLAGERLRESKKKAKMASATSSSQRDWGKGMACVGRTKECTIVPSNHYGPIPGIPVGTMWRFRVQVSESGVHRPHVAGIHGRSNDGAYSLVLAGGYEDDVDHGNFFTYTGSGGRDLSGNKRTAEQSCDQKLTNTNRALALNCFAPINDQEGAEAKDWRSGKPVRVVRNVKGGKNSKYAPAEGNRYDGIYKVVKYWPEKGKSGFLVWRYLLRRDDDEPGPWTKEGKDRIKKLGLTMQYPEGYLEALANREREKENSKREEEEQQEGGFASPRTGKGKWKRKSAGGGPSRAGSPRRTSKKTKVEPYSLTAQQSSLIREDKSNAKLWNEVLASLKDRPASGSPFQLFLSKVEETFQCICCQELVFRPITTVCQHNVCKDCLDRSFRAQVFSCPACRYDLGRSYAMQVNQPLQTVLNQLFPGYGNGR
Measurement type: IC50

molecule=O=C(c1ccc(C(=O)N2CCC(N3CCCC3)CC2)c(NCc2ccccc2)c1)N1CCC(N2CCCC2)CC1 result="> 10 µM"
molecule=Nc1cc(C(=O)N2CCC(N3CCCC3)CC2)ccc1C(=O)N1CCC(N2CCCC2)CC1 result="> 10 µM"
molecule=O=C(c1ccc(C(=O)N2CCC(N3CCCC3)CC2)o1)N1CCC(N2CCCC2)CC1 result="> 10 µM"
molecule=O=C(c1ccc(C(=O)N2CCC(N3CCCC3)CC2)cc1)N1CCC(C2CCNCC2)CC1 result="> 10 µM"
molecule=O=C(c1cccc(C(=O)N2CCC(N3CCCC3)CC2)c1)N1CCC(N2CCCC2)CC1 result="> 10 µM"
molecule=CN(C)C1CCN(C(=O)c2ccc(C(=O)N3CCC(N(C)C)CC3)cc2)CC1 result="> 10 µM"
molecule=O=C(c1ccc(C(=O)N2CCC(N3CCCC3)CC2)c2ccccc12)N1CCC(N2CCCC2)CC1 result="> 10 µM"
molecule=c1cc(N2CCC(N3CCCC3)CC2)ccc1CCN1CCC1 result="> 30 µM"
molecule="CCN1Cc2ccc(NC(=O)c3ccc(C(=O)N4CC5CCC(C4)C5N4CCCC4)cc3)cc2C1 (stereo not given)" result="> 10 µM"
molecule="O=C(c1ccc(C(=O)N2CCC(N3CCCC3)C2)cc1)N1CCC(N2CCCC2)CC1 (stereo not given)" result="> 10 µM"
molecule="O=C(c1ccc(C(=O)N2CCC(N3CCCC3)CC2)cc1)N1CCC(C2CCCN2)CC1 (stereo not given)" result="> 10 µM"
molecule=O=C(c1ccc(C(=O)N2CCC(N3CCCC3)CC2)cc1)N1CCC(N2CCCC2)CC1 result="> 10 µM"
molecule=O=C(c1ccc(C(=O)N2CCC(N3CCC3)CC2)cc1)N1CCC(N2CCC2)CC1 result="> 10 µM"
molecule=CN1CCN(c2ccnc(C(=O)N3CCC[C@H](C(=O)Nc4cccc(-c5ccc6c(c5)C(=O)NC6)c4)C3)c2)CC1 result="> 100 µM"
molecule="CCN1Cc2ccc(NC(=O)c3ccc(C(=O)N4CCC(C5CCCN5)CC4)c(Nc4ccccc4)c3)cc2C1 (stereo not given)" result="> 10 µM"
molecule=CN(C)C1CCN(C(=O)c2ccc(C(=O)N3CCC(N4CCCC4)CC3)cc2)CC1 result="> 10 µM"
molecule=c1cc(N2CCC(N3CCCC3)CC2)ccc1CCCN1CCCC1 result="> 30 µM"
molecule="N#CC1CCN(CCc2ccc(N3CCC(N4CCCC4)CC3)cc2)C1 (stereo not given)" result="> 30 µM"
molecule=O=C(c1cncc(Br)c1)N1CCC(N2CCCC2)CC1 result="> 10 µM"
molecule="O=C(c1ccc(C(=O)N2CCC(N3CCCC3)CC2)cc1)N1CCCC(N2CCCC2)CC1 (stereo not given)" result="> 10 µM"
